assay: Solubility of the compound in surfactant solutions; assay type: physicochemical; conditions: water
Quantity Kind: solubility (µg/mL)
One number for each entry, in µg/mL.

Request: Reported solubility for COc1cc(Nc2nn([C@H]3COCC[C@@H]3C#N)cc2C(N)=O)cc(F)n1 : what is it?
Response: 8

====

assay: Solubility of the compound in surfactant solutions; assay type: physicochemical; conditions: 10% Poloxamer 188 solution, aqueous with cosolvent or surfactant or cyclodextrin, 10% Poloxamer 188
Quantity Kind: solubility (µg/mL)
Answers are plain numbers, in µg/mL.

Request: Reported solubility for COc1cc(Nc2nn([C@H]3COCC[C@@H]3C#N)cc2C(N)=O)cc(F)n1 : what is it?
Response: 109
